system.tested: T1, RBFOX1 RRM RbFoxmut (Fox-RRM*) (Homo sapiens, UniProt Q9NWB1 109-208, R118D;E147R;N151S;E152T)
T1 sequence: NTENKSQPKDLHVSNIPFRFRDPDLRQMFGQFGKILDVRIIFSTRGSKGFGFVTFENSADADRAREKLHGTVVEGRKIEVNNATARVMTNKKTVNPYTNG
run.description: EMSA; HiTS-Eq, 1 nM pool, 10 min; buffer printed only for the single-RNA assays: 10 mM Tris pH 7.5, 150 mM NaCl, 3.4 mM EDTA, 0.001% NP-40, 30 C
test.conditions: tags: His6 N-terminal (pET28a); label: 5' 32P
In all, about 16,000 sequences were measured (“ka relative to ugcaugu”: median about 0.096, highest 2% from about 0.35 on). The list comes from a sample in which the highest values are over-represented; it also holds close analogues and randomly drawn sequences.
reported.endpoint: binding signal

[[record]]
binder = "AGGAUUG (DNA:RNA) RNA: GGGAGACCGGAAUUCAGAUUGUCCAGGAUUGUUAAAUCCCGUCGUAGCCACCA DNA 1: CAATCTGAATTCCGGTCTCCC DNA 2: TGGTGGCTACGACGGGATT"
obs_value = "0.583 KA relative to UGCAUGU"

[[record]]
binder = "AGGAUGU (DNA:RNA) RNA: GGGAGACCGGAAUUCAGAUUGUCCAGGAUGUUUAAAUCCCGUCGUAGCCACCA DNA 1: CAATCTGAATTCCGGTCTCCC DNA 2: TGGTGGCTACGACGGGATT"
obs_value = "0.339 KA relative to UGCAUGU"

[[record]]
binder = "GGGAUGA (DNA:RNA) RNA: GGGAGACCGGAAUUCAGAUUGUCCGGGAUGAUUAAAUCCCGUCGUAGCCACCA DNA 1: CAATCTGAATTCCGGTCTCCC DNA 2: TGGTGGCTACGACGGGATT"
obs_value = "0.267 KA relative to UGCAUGU"

[[record]]
binder = "GGCUGGU (DNA:RNA) RNA: GGGAGACCGGAAUUCAGAUUGUCCGGCUGGUUUAAAUCCCGUCGUAGCCACCA DNA 1: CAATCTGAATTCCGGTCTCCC DNA 2: TGGTGGCTACGACGGGATT"
obs_value = "0.14 KA relative to UGCAUGU"

